What IC50 was measured for each of the following?
Target: KRAS G12D and SOS1 proteins (Homo sapiens)
Sequence (Q07889 1-1333): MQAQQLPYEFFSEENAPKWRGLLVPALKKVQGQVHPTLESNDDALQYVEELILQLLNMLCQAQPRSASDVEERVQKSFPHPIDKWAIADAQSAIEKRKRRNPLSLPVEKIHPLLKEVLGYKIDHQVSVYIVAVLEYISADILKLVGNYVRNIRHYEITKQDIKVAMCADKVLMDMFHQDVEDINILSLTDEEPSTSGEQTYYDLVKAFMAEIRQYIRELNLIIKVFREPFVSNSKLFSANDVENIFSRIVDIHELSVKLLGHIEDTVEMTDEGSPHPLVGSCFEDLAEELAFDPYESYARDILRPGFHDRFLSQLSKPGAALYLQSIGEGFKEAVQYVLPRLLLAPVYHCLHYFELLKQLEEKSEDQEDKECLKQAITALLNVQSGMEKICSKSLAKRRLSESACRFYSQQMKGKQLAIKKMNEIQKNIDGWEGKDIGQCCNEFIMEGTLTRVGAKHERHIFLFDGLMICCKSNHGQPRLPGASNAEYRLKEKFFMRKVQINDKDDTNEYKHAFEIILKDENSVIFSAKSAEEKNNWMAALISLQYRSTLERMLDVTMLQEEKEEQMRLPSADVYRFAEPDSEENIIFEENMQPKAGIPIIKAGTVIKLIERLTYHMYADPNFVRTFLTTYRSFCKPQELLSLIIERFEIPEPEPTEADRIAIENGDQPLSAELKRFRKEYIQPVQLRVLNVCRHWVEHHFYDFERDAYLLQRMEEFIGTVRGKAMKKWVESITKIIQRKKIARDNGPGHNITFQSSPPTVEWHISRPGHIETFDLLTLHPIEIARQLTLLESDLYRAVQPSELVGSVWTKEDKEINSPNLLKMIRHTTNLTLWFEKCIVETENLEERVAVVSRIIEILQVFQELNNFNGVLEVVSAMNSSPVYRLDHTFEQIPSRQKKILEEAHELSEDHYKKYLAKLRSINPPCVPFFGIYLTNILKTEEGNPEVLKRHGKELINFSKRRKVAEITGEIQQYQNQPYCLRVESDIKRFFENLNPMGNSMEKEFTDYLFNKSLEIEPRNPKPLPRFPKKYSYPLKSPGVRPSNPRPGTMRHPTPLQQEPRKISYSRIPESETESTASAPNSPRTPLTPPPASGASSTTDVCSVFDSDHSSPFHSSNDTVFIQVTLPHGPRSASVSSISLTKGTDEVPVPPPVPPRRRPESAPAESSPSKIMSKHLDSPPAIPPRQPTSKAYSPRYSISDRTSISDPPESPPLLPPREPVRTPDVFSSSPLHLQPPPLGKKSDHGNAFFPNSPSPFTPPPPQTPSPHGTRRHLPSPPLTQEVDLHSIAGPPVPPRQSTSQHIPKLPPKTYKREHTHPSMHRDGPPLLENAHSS
Experiment: KRAS-G12D/SOS1 binding assay (HTRF)
Conditions: Tag1-SOS1 / Tag2-KRAS G12D, 10 μM GTP

Guide cases for IC50, answers given:
>>> experimental_result("Cc1nc(N[C@H](C)c2cccc3c2CCC3(F)F)c2cc(-c3ccc(=O)n(C)c3)c3c(cnn3C)c2n1")
"< 100 nM"
>>> experimental_result("C[C@@H](Nc1nc(C(F)(F)F)nc2c1cc(-c1ccc(=O)n(C)c1)c1c2cnn1C)c1cc(F)cc(C(F)(F)CO)c1")
"100 to 500 nM"
>>> experimental_result("CC(=O)N1CCC(c2cc3c(N[C@H](C)c4cccc(C(F)(F)F)c4)nc(C)nc3n3cnnc23)CC1")
"< 100 nM"

Can you give me IC50 for all of these, one by one?
1. C[C@@H](Nc1nc2ccnn2c2cc(=O)n(C3CC(F)(F)C3)cc12)c1cc(F)cc(C(F)(F)CO)c1
2. C[C@@H](Nc1nc2ccnn2c2cc(=O)n(C3CCNCC3)cc12)c1cccc(C(F)(F)CO)c1
3. C[C@@H](Nc1nc2c(F)cnn2c2cc(=O)n(C3CC(F)(F)C3)cc12)c1cccc(C(F)(F)CO)c1
4. Cc1nc(N[C@H](C)c2cccc(C(F)(F)CO)c2)c2cc(O[C@H]3CCOC3)c3nncn3c2n1
5. COc1cc2c(cc1C1CCOCC1)c(N[C@H](C)c1cccc(C(F)(F)CO)c1)nc1ccnn12
6. C[C@@H](Nc1nc2ccnn2c2cc(=O)n(C3(C(F)F)CC3)cc12)c1cccc(C(F)(F)CO)c1
7. Cc1nc(N[C@H](C)c2cccc(C(F)(F)F)c2)c2cc(OC3CCOC3)c3c(cnn3C)c2n1 (stereo partly drawn)

OUT:
1. < 100 nM
2. < 100 nM
3. < 100 nM
4. 100 to 500 nM
5. 100 to 500 nM
6. < 100 nM
7. 100 to 500 nM
